tested on: MCA205 cells; test: (Photo-)cytotoxicity on 2D cell monolayers, resazurin assay; type: cell-based, mouse; conditions: Mus musculus, MCA-205; MCA205, normoxic, dark, 4 h exposure, total 48 h incubation; read-out: IC50 Dark
readout type: IC50 (µM)
The response must be a number in µM with no trailing unit.

query: Hello, please tell me recorded IC50 for this one: Cc1cc(Nc2ncc(Cl)c(Nc3ccccc3S(=O)(=O)C(C)C)n2)c(OC(C)C)cc1C1CCNCC1 [Ceritinib]
result: 6.97

====

test system: A549 cells; assay: (Photo-)cytotoxicity on 2D cell monolayers, resazurin assay; format: cell-based; settings: Homo sapiens; A549, normoxic, 740 nm (60 min, 12.60 J·cm^−2), 4 h exposure, total 48 h; read-out: IC50 Irrad. 740 nm
readout type: IC50

query: Tell me IC50 reported for C=Cc1c(C)c2cc3nc(c(CC(=O)O)c4[nH]c(cc5nc(cc1[nH]2)C(C)=C5CC)c(C)c4C(=O)O)[C@@H](CCC(=O)O)[C@@H]3C [Ce6, Chlorin e6]
result: 5.86 µM
